Each record here notes measured cAMP EC50 (0.1% casein).
SYSTEM: T1, human GIP receptor (human), P48546
T1 chain: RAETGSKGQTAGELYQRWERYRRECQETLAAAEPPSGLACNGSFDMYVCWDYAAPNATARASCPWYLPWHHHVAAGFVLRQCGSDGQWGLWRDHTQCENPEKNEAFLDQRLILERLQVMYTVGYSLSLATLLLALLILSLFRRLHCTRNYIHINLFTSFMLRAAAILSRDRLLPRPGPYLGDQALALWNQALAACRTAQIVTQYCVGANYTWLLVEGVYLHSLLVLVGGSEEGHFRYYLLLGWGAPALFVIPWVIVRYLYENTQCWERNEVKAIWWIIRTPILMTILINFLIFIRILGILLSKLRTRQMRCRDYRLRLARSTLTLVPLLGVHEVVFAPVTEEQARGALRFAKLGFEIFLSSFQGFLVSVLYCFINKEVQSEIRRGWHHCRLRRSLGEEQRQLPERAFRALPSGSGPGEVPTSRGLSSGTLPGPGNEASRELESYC
ASSAY COMMENT: cell-based or functional assay
*1 amine or outer side, *2 acyl side, *3 side chain or, on linkers, in order; H or OH if unused. Where no end group is shown, it is not given here. Side-chain parts run from the residue outwards. [ ]: non-standard residue; d: D form. The star is where a group is joined. C20 diacid = O=C(O)CCCCCCCCCCCCCCCCCCC(=O)*; γGlu = O=C(O)[C@H](CCC(=O)[*:2])N[*:1]; αMeL = CC(C)C[C@](C)(N)C(=O)O; αMeK = C[C@](N)(CCCCN)C(=O)O; AEEA = NCCOCCOCC(=O)O; Aib = CC(C)(N)C(=O)O
MEASURED ATTRIBUTE: cAMP EC50 (0.1% casein) (nM)

Y[Aib]QGTFTSDYSILLDKK([AEEA-γGlu-C20 diacid])AQ[Aib]AFIEYLLEGGPSSGAPPPS-NH2 [Example 18]    0.123
Y[Aib]QGTFTSDYSI[αMeL]LDKK([AEEA-γGlu-C20 diacid])AQHAFIEYLLEGGPSSGAPPPS-NH2 [Example 10]    0.0928
Y[Aib]QGTFTSDYSILLDKK([AEEA-AEEA-γGlu-C20 diacid])AQ[Aib]AFIEYLLEGGPSSGAPPPS-NH2 [Example 16]    0.114
Y[Aib]QGTFTSDYSI[αMeL]LDKK([AEEA-AEEA-γGlu-C20 diacid])AQ[αMeK]AFIEYLLEGGPSSGAPPPS-NH2 [Example 3]    0.0376
Y[Aib]QGTFTSDYSI[αMeL]LDKK([AEEA-AEEA-γGlu-C20 diacid])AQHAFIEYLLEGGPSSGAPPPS-NH2 [Example 7]    0.0798
Y[Aib]QGTFTSDYSI[αMeL]LDKK([AEEA-AEEA-γGlu-C20 diacid])AAQAFIEYLLEGGPSSGAPPPS-NH2 [Example 6]    0.274
